Tested on: HCT116
Experiment: MTS antiproliferative assay, HCT116 (with or without added metal ions)
Format: cell-based, human
Conditions: 96 h incubation, MTS; read-out: Activity - IC50 HCT116

| chemical_string | IC50 / nM |
| --- | --- |
| FC(F)(F)c1cnc(N2CCN(C(=S)NN=Cc3ccc4ccccc4n3)CC2)c(Cl)c1 | 72.1 |

---

Entries annotated with measured pIC50
System: HCT116
Assay: MTS antiproliferative assay, HCT116 (with or without added metal ions)
Assay type: cell-based, human
Settings: 96 h, 20 µM FeCl3 added; read-out: Activity - IC50 HCT116+ Fe^3+
pIC50: −log10 of the molar value.

| chemical_string | assay_system | pIC50 |
| --- | --- | --- |
| Oc1cccc2ccc(C=NNC(=S)N3CCOCC3)nc12 | HCT116 | 8.12 |
| S=C(NN=Cc1ccc2ccccc2n1)N1CCN(c2cnccn2)CC1 | HCT116 | 7.01 |
| S=C(NN=C(c1ccccn1)c1ccccn1)N1CCN(c2ccccc2)CC1 | HCT116 | 8.68 |
| S=C(NN=C(c1ccccn1)c1ccccn1)N1CCN(c2ccccn2)CC1 | HCT116 | 8.00 |
| Oc1cccc2ccc(C=NNC(=S)N3CCN(c4cnccn4)CC3)nc12 | HCT116 | 7.11 |
| FC(F)(F)c1cnc(N2CCN(C(=S)NN=Cc3ccc4ccccc4n3)CC2)c(Cl)c1 | HCT116 | 7.15 |
| S=C(NN=C(c1ccccn1)c1ccccn1)N1CCN(c2cnccn2)CC1 | HCT116 | 7.53 |
